Some compounds, each annotated with its measured IC50.
molecular target: Recombinant human c-KIT kinase (Homo sapiens (Human)); assay: c-KIT Kinase Chemiluminescence Assay (ADP-Glo); details: recombinant human c-KIT 25 ng, ATP 50 μM, polyEY substrate, ADP-Glo luminescence

[[record]]
structure = "Cc1sc(-c2noc([C@H]3C[C@@H]3F)n2)cc1NC(=O)c1cnc2ccccn12"
experimental_target = "Recombinant human c-KIT kinase (Homo sapiens (Human))"
test_value = "100 to 1000 nM"

[[record]]
structure = "Cc1ncc(-c2nnn(C3CC(F)(F)C3)n2)cc1NC(=O)c1cnc2ccc(N3CC4(C3)CC(O)(C(F)F)C4)cn12"
experimental_target = "Recombinant human c-KIT kinase (Homo sapiens (Human))"
test_value = "100 to 1000 nM"

[[record]]
structure = "Cc1sc(-c2noc(C3CC(F)(F)C3)n2)cc1NC(=O)c1cnc2ccccn12"
experimental_target = "Recombinant human c-KIT kinase (Homo sapiens (Human))"
test_value = "100 to 1000 nM"


Value of measured IC50 for the entry Cc1ncc(-c2noc([C@H]3C[C@@H]3F)n2)cc1NC(=O)c1cnc2cc(N3CC4(C3)CC(O)(C(F)F)C4)ccn12 : 100 to 1000 nM

---

Reported IC50 values follow for various compounds
molecular target: Recombinant human c-KIT kinase (Homo sapiens (Human), UniProt P10721); experiment: c-KIT Kinase Chemiluminescence Assay (ADP-Glo); conditions: recombinant human c-KIT 25 ng, ATP 50 μM, polyEY substrate, ADP-Glo luminescence
Sequence (P10721 26-976): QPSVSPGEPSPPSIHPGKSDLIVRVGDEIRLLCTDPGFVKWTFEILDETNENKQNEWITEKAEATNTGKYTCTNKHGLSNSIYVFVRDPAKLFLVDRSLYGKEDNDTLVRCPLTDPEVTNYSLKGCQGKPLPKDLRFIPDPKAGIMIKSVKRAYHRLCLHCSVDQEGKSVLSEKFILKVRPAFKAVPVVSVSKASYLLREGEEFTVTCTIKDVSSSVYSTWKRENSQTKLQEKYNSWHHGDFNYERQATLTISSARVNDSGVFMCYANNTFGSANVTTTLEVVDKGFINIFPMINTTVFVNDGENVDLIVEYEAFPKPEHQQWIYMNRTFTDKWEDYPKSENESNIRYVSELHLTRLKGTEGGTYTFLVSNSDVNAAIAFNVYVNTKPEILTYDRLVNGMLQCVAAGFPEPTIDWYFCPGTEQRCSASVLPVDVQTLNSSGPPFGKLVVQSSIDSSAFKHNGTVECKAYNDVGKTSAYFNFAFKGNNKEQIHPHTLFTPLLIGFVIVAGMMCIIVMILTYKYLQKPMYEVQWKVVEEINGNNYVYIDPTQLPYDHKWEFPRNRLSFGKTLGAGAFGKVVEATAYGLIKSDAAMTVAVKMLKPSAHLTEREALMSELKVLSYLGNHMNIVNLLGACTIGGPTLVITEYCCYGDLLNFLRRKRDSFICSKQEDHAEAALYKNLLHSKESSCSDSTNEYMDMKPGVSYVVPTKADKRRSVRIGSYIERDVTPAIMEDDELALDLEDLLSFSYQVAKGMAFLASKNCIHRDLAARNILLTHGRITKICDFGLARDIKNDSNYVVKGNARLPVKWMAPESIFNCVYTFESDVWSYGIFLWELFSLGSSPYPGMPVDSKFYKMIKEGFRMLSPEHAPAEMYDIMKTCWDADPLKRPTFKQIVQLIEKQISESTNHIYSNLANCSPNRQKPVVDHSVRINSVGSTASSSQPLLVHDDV

[[record]]
compound = "Cc1ncc(-c2noc([C@H]3C[C@@H]3F)n2)cc1NC(=O)c1cnc2ccc(N3CC4(C3)CC(O)(C(F)F)C4)cn12 [Example 15]"
test_value = "100 to 1000 nM"

[[record]]
compound = "Cc1ncc(-c2ncc(OC(F)(F)F)cn2)cc1NC(=O)c1cnc2ccc(N3CC4(C3)CC(O)(C(F)F)C4)cn12 [Example 14]"
test_value = "> 1000 nM"

[[record]]
compound = "O=C(Nc1cc(-c2noc(C3CC(F)(F)C3)n2)ccn1)c1cnc2ccccn12 [Example 2]"
test_value = "> 1000 nM"


Now for the compound whose IC50 we want.
// IC50 value for O=C(Nc1cc(-c2noc([C@H]3C[C@@H]3F)n2)ccn1)c1cnc2ccccn12 [Example 1] : > 1000 nM

Each recorded value in this set is attributed to patent US20250042898A1.
